Property: IC90; scope: individual molecules
Biological target: Human immunodeficiency virus type 1 reverse transcriptase (Human immunodeficiency virus 1) (UniProt Q72547)

Here's what some known entries look like.
CCS(=O)(=O)N1c2ccccc2NC(=O)C1(C#CC1CC1)C(F)(F)F (stereo unspecified) :: > 1000 nM
O=C1Nc2ccc(Cl)cc2N(CC2CC2)C1(C#CC1CC1)C(F)(F)F (stereo unspecified) :: 27 nM
CCCCOC(=O)N1c2ccccc2NC(=O)C1(C#CC1CC1)C(F)(F)F (stereo unspecified) :: 105 nM

Exercise: What value of IC90 has been recorded for this entry: CC(C)OC(=O)N1c2ccccc2NC(=O)C1(C#CC1CC1)C(F)(F)F (stereo unspecified)
Key: 15 nM

Exercise: What value of IC90 has been recorded for this entry: C=C(C)OC(=O)N1c2cc(F)ccc2NC(=O)C1(C#CC1CC1)C(F)(F)F (stereo unspecified)
Key: 8 nM

Exercise: What value of IC90 has been recorded for this entry: `CC[C@H]1C(=O)Nc2ccc(F)cc2N1C(=O)OC(C)C`
Key: 11 nM
